Below is a list of entries, each paired with its recorded melting point value.

# melting point of COc1cc2ncnc(N3CCN(C(=O)Nc4ccc(C5CCCCC5)cc4)CC3)c2cc1OC = 238 to 241 °C

Documented melting point of COc1ccc(CNC(=S)N2CCN(c3ncnc4cc(OC)c(OC)cc34)CC2)cc1OC : 196 to 197 °C

====

parameter: melting point

COc1cc2ncnc(N3CCN(C(=O)Nc4ccc(Oc5ccccc5)cc4)CC3)c2cc1OS(C)(=O)=O ... 228 to 229 °C
S=C(NCc1ccc(Cl)cc1)N1CCN(c2ccnc3ccc(Cl)cc23)CC1 ... 89 to 90 °C
COc1cc2ncnc(N3CCN(C(=S)Nc4cccnc4)CC3)c2cc1OC ... 169 to 171 °C
COc1cc2ncnc(N3CCN(C(=S)Nc4ccc(I)cc4)CC3)c2cc1OC ... 129 to 132 °C
COc1cc2ccnc(N3CCN(C(=S)NCc4ccccc4)CC3)c2cc1OC ... 171 to 172 °C

Entry COc1cc2ncnc(N3CCN(C(=O)Nc4ccc(OC(C)C)cc4)CC3)c2cc1OC , melting point reported as 220 to 222 °C

Sure, the documented melting point for S=C(NCc1cccnc1)N1CCN(c2ncnc3cc4c(cc23)OCO4)CC1 is 167 to 168 °C

The value of melting point measured for the compound COc1cc2ncnc(N3CCCN(C(=S)NCc4cccnc4)CC3)c2cc1OC.Cl.Cl turned out to be 177 to 183 °C

====

parameter: melting point

Worked examples, 2 compounds total:
COc1cc2ncnc(N3CCN(C(=S)NCc4ccc(C)c(Cl)c4)CC3)c2cc1OC [Compound 190] ... 108 to 110 °C
COc1cc2ncnc(N3CCN(C(=O)Nc4ccc(Cl)c([N+](=O)[O-])c4)CC3)c2cc1OC [Compound 83] ... 253 to 255 °C

Record summary for COc1cc2ncnc(N3CCN(C(=S)Nc4ccc(C(F)(F)F)cc4)CC3)c2cc1OC [Compound 159] : reported melting point = 117 to 119 °C

Notebook: COc1ccc(NC(=S)N2CCN(c3ncnc4cc(OC)c(OC)cc34)CC2)cc1OC [Compound 66] , melting point read as 174 to 176 °C

// recorded melting point for Cl.Cl.S=C(NCc1cccnc1)N1CCN(c2ccnc3ccc(Cl)cc23)CC1 : 162 to 164 °C

The recorded melting point for entry COc1cc2ncnc(N3CCN(C(=S)NCc4ccco4)CC3)c2cc1OC [Compound 94] equals 189 to 190 °C

# melting point of COc1cc2ncnc(N3CCN(C(=S)NCCc4ccc(Cl)cc4)CC3)c2cc1OC [Compound 180] = 106 to 109 °C

====

parameter: melting point

Form: molecule = COc1cc2ncnc(N3CCN(C(=S)Nc4ccc(N(C)C)cc4)CC3)c2cc1OC ; melting point = 226 to 227 °C

====

# melting point values compiled below

So, CC(C)c1ccc(NC(=O)N2CCN(c3ncnc4c(I)cc(I)cc34)CC2)cc1 [Compound 379] ? Its melting point was 267 to 269 °C

Given item Cc1cccc2ncnc(N3CCN(C(=O)Nc4ccc(Oc5ccccc5)cc4)CC3)c12 [Compound 287] , the value recorded as its melting point is 187 to 188 °C

So, CCN(CC)c1ccc(NC(=S)N2CCN(c3ncnc4cc(OC)c(OC)cc34)CC2)cc1 [Compound 72] ? Its melting point was 147 to 148 °C

Documented melting point of CCOc1cc2c(N3CCN(C(=S)NCc4cccnc4)CC3)ncnc2cc1OC [Compound 349] : 208 to 209 °C

melting point in this record for COc1cc2ncnc(N3CCN(C(=S)Nc4ccc(C(C)=O)cc4)CC3)c2cc1OC [Compound 242] : 256 to 257 °C

Notebook: O=C(Nc1ccc(Oc2ccccc2)cc1)N1CCN(c2ncnc3cc(F)c(F)cc23)CC1 [Compound 329] , melting point read as 177 to 178 °C
